- ASSAYED_TARGET: ENPP-1 ECD (Homo sapiens (Human), UniProt P22413)
- Sequence (P22413 98-925): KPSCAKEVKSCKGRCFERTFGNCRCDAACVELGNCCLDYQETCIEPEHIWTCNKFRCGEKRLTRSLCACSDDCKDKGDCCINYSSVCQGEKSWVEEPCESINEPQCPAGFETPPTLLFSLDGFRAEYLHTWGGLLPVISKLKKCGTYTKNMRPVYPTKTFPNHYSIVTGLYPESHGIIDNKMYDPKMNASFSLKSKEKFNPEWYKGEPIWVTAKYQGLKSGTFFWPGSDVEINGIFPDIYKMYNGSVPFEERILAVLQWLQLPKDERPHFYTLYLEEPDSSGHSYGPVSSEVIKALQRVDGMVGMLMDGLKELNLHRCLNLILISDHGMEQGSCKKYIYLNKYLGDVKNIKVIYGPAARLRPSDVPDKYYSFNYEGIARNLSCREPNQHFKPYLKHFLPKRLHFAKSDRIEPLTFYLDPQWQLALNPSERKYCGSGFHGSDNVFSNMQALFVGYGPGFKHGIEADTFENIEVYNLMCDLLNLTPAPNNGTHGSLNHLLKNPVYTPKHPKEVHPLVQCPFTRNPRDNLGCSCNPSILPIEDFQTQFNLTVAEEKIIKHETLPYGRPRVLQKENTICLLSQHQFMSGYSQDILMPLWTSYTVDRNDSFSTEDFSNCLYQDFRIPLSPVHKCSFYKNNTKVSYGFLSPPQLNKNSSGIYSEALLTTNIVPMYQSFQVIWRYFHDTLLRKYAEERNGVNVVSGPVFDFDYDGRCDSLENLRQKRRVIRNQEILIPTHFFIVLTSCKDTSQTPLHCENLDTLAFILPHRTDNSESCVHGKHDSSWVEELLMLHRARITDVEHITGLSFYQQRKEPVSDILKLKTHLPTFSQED
- ASSAY_INFO: Assay 2: inhibition of ENPP1 hydrolysis of 2′,3′-cGAMP (AMP-Glo, […] enzyme)
- EXPERIMENTAL_CONDITIONS: Assay 2 (KI), inhibition of ENPP1 hydrolysis of 2′,3′-cGAMP; no unit in Table 18 (Table 17 legend for this assay uses nM)
QUANTITY_MEASURED: log10(Ki) (log10 of the value in nM)
Hello, just confirming the data are log10 of Ki with units of nM.

Problem: Given the entry COc1cc2ncnc(N3CCC4(CCC(S(C)(=N)=O)C4)CC3)c2cc1OC (stereo not drawn) , what log10(Ki) was observed with ENPP-1 ECD (Homo sapiens (Human), UniProt P22413)?
Solution: -0.80

Problem: Try this molecule next: COc1cc2nccc(OCc3cccc(S(C)(=N)=O)c3)c2cc1F (stereo not drawn)
Solution: -1.29

Problem: Try this molecule next: COc1ccc2c(OCc3cncc(S(C)(=N)=O)c3)ccnc2c1 (stereo not drawn)
Solution: 1.04

Problem: Try this molecule next: COc1cc2nnc(C)c(N3CCC4(CC3)CCN(S(C)(=N)=O)C4)c2cc1OC (stereo not drawn)
Solution: -0.60

Problem: Try this molecule next: COc1cc2ncnc(OCC3CCN(S(C)(=N)=O)CC3)c2cc1OC (stereo not drawn)
Solution: 1.99

Problem: Try this molecule next: COc1cc2ncnc(N3CC4(CCN(S(C)(=N)=O)CC4)C3)c2cc1OC (stereo not drawn)
Solution: 1.23

Problem: Try this molecule next: COc1cc2nccc(Oc3ccc(S(C)(=N)=O)cc3)c2cc1OC (stereo not drawn)
Solution: 0.54

Problem: Try this molecule next: COc1cc2nccc(OCc3cccc(S(C)(=N)=O)c3)c2cc1Cl (stereo not drawn)
Solution: -1.03

Problem: Try this molecule next: COc1cc2nccc(Oc3ccc(S(C)(=N)=O)cc3)c2cc1Cl (stereo not drawn)
Solution: 1.04

Problem: Try this molecule next: COc1cccc2c(N3CC=C(CS(C)(=N)=O)CC3)ncnc12 (stereo not drawn)
Solution: 1.28

Problem: Try this molecule next: COc1cccc2c(N3CCC4(CC3)CN(S(C)(=N)=O)C4)ncnc12 (stereo not drawn)
Solution: 1.93

Problem: Try this molecule next: COc1cc2ncc(C#N)c(Oc3ccc(S(C)(=N)=O)cc3)c2cc1F (stereo not drawn)
Solution: 0.20

Problem: Try this molecule next: COc1cc2ncnc(N3CCC(CNS(C)(=N)=O)CC3)c2cc1OC (stereo not drawn)
Solution: 0.11

Problem: Try this molecule next: COc1ccc2c(N3CCC(CS(C)(=N)=O)CC3)ccnc2c1 (stereo not drawn)
Solution: 1.75

Problem: Try this molecule next: COc1ccc(F)c2c(N3CCC(CS(C)(=N)=O)CC3)c(C#N)cnc12 (stereo not drawn)
Solution: 0.23

Problem: Try this molecule next: COc1cccc2c(N3CCC(CCS(C)(=N)=O)CC3)ccnc12 (stereo not drawn)
Solution: 2.26

Problem: Try this molecule next: COc1cc2nccc(OCc3cccc(S(C)(=N)=O)c3)c2cc1OC (stereo not drawn)
Solution: -1.43

Problem: Try this molecule next: COc1ccc2c(OCC3CCS(=N)(=O)CC3)ccnc2c1 (stereo not drawn) [Compound 107]
Solution: 1.90

Problem: Try this molecule next: COc1cccc2c(N3CCC(CS(C)(=N)=O)CC3)c(F)cnc12 (stereo not drawn)
Solution: 2.57

Problem: Try this molecule next: COc1cc2nccc(OCc3ccc(S(C)(=N)=O)cc3)c2cc1OC (stereo not drawn)
Solution: 0.66

Problem: Try this molecule next: COc1ccc2c(COc3cccc(S(C)(=N)=O)c3)ccnc2c1 (stereo not drawn)
Solution: 0.52

---

- ASSAYED_TARGET: ENPP1 on MDA-MB-231 cells (Homo sapiens (Human), UniProt P22413)
- Sequence (P22413 whole entry): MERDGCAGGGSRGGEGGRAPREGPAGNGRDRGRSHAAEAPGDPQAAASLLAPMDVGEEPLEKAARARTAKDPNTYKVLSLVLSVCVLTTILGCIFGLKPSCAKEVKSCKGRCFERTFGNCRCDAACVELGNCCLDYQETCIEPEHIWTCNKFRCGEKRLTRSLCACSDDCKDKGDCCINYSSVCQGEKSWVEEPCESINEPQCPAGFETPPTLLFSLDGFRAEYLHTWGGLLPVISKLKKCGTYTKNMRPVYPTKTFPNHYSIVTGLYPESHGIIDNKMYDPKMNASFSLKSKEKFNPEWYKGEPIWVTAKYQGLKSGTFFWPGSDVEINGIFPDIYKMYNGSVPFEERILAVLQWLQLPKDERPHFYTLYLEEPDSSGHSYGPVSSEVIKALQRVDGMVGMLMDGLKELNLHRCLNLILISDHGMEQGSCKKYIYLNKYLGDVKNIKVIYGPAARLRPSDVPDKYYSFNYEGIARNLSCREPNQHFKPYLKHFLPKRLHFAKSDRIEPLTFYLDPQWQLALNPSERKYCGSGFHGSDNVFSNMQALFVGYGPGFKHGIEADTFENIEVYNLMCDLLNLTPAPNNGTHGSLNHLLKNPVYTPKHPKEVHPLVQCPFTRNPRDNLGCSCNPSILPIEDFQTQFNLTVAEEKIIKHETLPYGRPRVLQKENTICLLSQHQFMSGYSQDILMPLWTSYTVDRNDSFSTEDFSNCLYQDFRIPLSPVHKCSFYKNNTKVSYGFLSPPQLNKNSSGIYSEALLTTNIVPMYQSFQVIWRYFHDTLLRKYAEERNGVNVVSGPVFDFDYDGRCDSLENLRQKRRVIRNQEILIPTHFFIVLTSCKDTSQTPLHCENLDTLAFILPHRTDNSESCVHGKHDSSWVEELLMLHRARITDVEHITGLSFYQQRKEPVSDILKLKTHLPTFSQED
- ASSAY_INFO: Assay 3: inhibition of ENPP1 hydrolysis of AMP p-nitrophenyl ester on MDA-MB-231 cells
Kindly state pKi for each of the entries shown.
In plain terms, pKi is the concentration in mol/L turned into minus its base-10 logarithm.

Problem: Param item = COc1cc2ncc(C#N)c(N3CCC4(CC3)CCN(S(C)(=N)=O)C4)c2cc1F (stereo not drawn) [Compound 210] ; retrieve measured pKi.
Solution: 8.60

Problem: Try this molecule next: COc1cc2nccc(OCc3ccc(S(C)(=N)=O)cc3)c2cc1F (stereo not drawn) [Compound 136]
Solution: 7.54

Problem: Try this molecule next: COc1cc2ncc(C#N)c(N3CCC4(CC3)CCN(S(N)(=O)=O)C4)c2cc1F [reference compound]
Solution: 7.62

Problem: Try this molecule next: CCS(=N)(=O)N1CCC2(CCN(c3ncnc4cc(OC)c(F)cc34)CC2)C1 (stereo not drawn) [Compound 221]
Solution: 8.34

Problem: Try this molecule next: COc1cc2ncnc(N3CCC(CNS(C)(=N)=O)CC3)c2cc1OC (stereo not drawn) [Compound 94]
Solution: 7.08

Problem: Try this molecule next: COc1ccc2c(-c3ccc4c(c3)CN(S(C)(=N)=O)CC4)ccnc2c1 (stereo not drawn) [Compound 52]
Solution: 6.55

Problem: Try this molecule next: COc1cc2nccc(Oc3ccc(S(=N)(=O)C4CC4)cc3)c2cc1F (stereo not drawn) [Compound 120]
Solution: 8.21

Problem: Try this molecule next: COc1cc2nccc(-c3ccc4c(c3)CN(S(C)(=N)=O)CC4)c2cc1OC (stereo not drawn) [Compound 161]
Solution: 8.43

Problem: Try this molecule next: COc1cc2nccc(N3CCC4(CC3)CCN(S(C)(=N)=O)C4)c2cc1OC (stereo not drawn) [Compound 208]
Solution: 9.68

Problem: Try this molecule next: COc1cc2ncnc(N3CCC4(CC3)CCN(S(C)(=N)=O)C4)c2cc1OCF (stereo not drawn) [Compound 241]
Solution: 8.92

Problem: Try this molecule next: COc1ccc2c(Oc3ccc(S(C)(=N)=O)cc3)c(C)cnc2c1 (stereo not drawn) [Compound 168]
Solution: 7.40

Problem: Try this molecule next: COc1cccc2c(N3CCC(O)(CS(C)(=N)=O)CC3)c(C#N)cnc12 (stereo not drawn) [Compound 198]
Solution: 9.70

Problem: Try this molecule next: COc1cc2nccc(N3CCC4(CC3)CCN(S(C)(=N)=O)C4)c2cc1C#N (stereo not drawn) [Compound 226]
Solution: 7.37

Problem: Try this molecule next: COc1cc2nncc(N3CCC4(CC3)CCN(S(C)(=N)=O)C4)c2cc1OC (stereo not drawn) [Compound 211]
Solution: 9.01

Problem: Try this molecule next: COc1cc2nccc(N3CCC4(CC3)CCN(S(C)(=N)=O)C4)c2cc1F (stereo not drawn) [Compound 205]
Solution: 8.66

Problem: Try this molecule next: COc1cccc2c(N3CCC(O)(CS(C)(=N)=O)CC3)nc(C)nc12 (stereo not drawn) [Compound 199]
Solution: 8.06

Problem: Try this molecule next: COc1cc2nccc(Oc3ccc([S@@](C)(=N)=O)cc3)c2cc1OC [Compound 1S]
Solution: 7.35

Problem: Try this molecule next: COc1cc2nccc(OCc3cccc(S(C)(=N)=O)c3)c2cc1OC (stereo not drawn) [Compound 175]
Solution: 8.46

---

Kindly state Ki for each of the entries shown.
- ASSAYED_TARGET: ENPP-1 ECD (Homo sapiens (Human))
- ASSAY_INFO: Assay 2: inhibition of ENPP1 hydrolysis of 2′,3′-cGAMP (AMP-Glo, […] enzyme)
- EXPERIMENTAL_CONDITIONS: read-out: Assay 2 (KI); inhibition of ENPP1 hydrolysis of 2′,3′-cGAMP; no unit in Table 18 (Table 17 legend for this assay uses nM)
Kindly provide the numeric value in nM only, without the unit symbol.

Problem: Param item = COc1cc2nccc(N3CCC(CC[S@@](C)(=N)=O)CC3)c2cc1Cl [Compound 141a] ; retrieve measured Ki.
Solution: 0.26

Problem: Try this molecule next: CC[S@](=N)(=O)c1ccc(Oc2ccnc3cc(OC)ccc23)cc1 [Compound 103b]
Solution: 0.31

Problem: Try this molecule next: COc1cc2nccc(OCc3cccc([S@@](C)(=N)=O)c3)c2cc1F [Compound 169a]
Solution: 15

Problem: Try this molecule next: COc1cc2nccc(OC[C@@H]3CCN([S@](C)(=N)=O)C3)c2cc1F [Compound 229b]
Solution: 0.37

Problem: Try this molecule next: COc1ccc2c(OCc3cc(F)cc([S@](C)(=N)=O)c3)ccnc2c1 [Compound 177b]
Solution: 0.0085

Problem: Try this molecule next: COc1cccc2c(N3CCC4(C3)CN([S@](C)(=N)=O)C4)ncnc12 [Compound 223a]
Solution: 0.047

Problem: Try this molecule next: CC[S@@](=N)(=O)c1ccc(Oc2ccnc3cc(OC)ccc23)cc1 [Compound 103a]
Solution: 450

Problem: Try this molecule next: COc1cccc2c(N3CC4(CCN([S@](C)(=N)=O)C4)C3)c(C#N)cnc12 [Compound 222b]
Solution: 1.3

Problem: Try this molecule next: COc1cc2nccc(N3CC4(CC(C[S@@](C)(=N)=O)C4)C3)c2cc1F [Compound 184a]
Solution: 0.1
